- System: Meloidogyne incognita
- Measurement notes: Nematicidal activity against Meloidogyne incognita J2 (root-knot nematode) assessed as paralysis measured after 1 hr at 28 degC
- Type: functional, organism-based
Please respond with condition met when measured EC50 is strictly beneath 70 µg/mL, and with condition not met in all other cases.

**Query** EC50 under 70 µg/mL? Item: CC(=O)O
**Result** condition met

**Query** Note, next up: CCOP(=O)(SC(C)CC)N1CCSC1=O (centres undefined) [FOSTHIAZATE]
**Result** condition met

**Query** Note, next up: CCCCCC(=O)O [HEXANOATE]
**Result** condition not met

**Query** Note, next up: CCCCCCCCCC(=O)O
**Result** condition not met

**Query** Note, next up: O=Cc1ccc(CO)o1
**Result** condition not met

**Query** Note, next up: O=Cc1ccco1
**Result** condition met

**Query** Note, next up: OCc1ccco1
**Result** condition not met

**Query** Note, next up: CCCCCCCCCCCCCCCC(=O)O
**Result** condition not met
